# systemUnderTest: vanilloid receptor (VR1) (Homo sapiens, UniProt Q8NER1)
# Construct: expressed in transfected cells; host or cells: CHO K1 cells (ECACC), stably transfected
# Sequence (Q8NER1 whole entry): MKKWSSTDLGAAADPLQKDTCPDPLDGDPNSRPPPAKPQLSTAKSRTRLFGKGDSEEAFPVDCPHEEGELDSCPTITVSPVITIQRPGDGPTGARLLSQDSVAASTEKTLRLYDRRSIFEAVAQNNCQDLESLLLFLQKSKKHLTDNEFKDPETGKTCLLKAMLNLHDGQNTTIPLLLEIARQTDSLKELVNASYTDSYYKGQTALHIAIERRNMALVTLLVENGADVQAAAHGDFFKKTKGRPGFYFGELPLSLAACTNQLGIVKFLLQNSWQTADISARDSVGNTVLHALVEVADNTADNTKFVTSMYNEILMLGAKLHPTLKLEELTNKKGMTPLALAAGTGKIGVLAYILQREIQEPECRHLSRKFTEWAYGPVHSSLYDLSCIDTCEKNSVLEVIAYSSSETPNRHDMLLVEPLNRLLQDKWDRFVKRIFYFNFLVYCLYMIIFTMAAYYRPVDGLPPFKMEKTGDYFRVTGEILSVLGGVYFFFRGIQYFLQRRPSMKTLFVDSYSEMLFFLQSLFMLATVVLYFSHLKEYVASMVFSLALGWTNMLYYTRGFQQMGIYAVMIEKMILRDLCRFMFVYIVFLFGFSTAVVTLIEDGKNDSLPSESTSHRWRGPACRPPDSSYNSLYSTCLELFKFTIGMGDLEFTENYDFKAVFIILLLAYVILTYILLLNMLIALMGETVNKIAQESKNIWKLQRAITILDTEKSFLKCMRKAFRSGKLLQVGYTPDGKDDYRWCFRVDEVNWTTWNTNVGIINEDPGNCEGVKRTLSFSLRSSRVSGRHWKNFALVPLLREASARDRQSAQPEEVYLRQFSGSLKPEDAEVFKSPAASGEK
# protocolText: FLIPR Ca2+ influx assay on CHO K1 cells transfected with the VR1 gene (pharmacological method II)
# Format: cell-based
# conditionSet: table 4; capsaicin; read-out: Ki (human) Cap.
Answer each item with its documented pKi.
Give bare numbers, as −log10 of the molar value.

Solved cases (5 shown):
compound: CC(C(=O)NCc1ccc(C(F)(F)F)nc1N1CCC2(CC1)CC(C(C)(C)C)=NO2)c1ccc(NS(C)(=O)=O)c(F)c1 (stereo not shown) [Example 251]
quantityKind: pKi
experimentalResult: 8.42
//
compound: COC1CCN(c2nc(C(F)(F)F)ccc2CNC(=O)C(C)c2ccc(NS(C)(=O)=O)c(F)c2)CC1 (stereo not shown) [Example 159]
quantityKind: pKi
experimentalResult: 8.62
//
compound: CC(C(=O)NCc1ccc(C(F)(F)F)nc1/C=C/C1CCCCC1)c1ccc(NS(C)(=O)=O)c(F)c1 (stereo not shown) [Example 346]
quantityKind: pKi
experimentalResult: 9.15
//
compound: CCC(=O)N(c1ccccc1)C1CCN(c2nc(C(F)(F)F)ccc2CNC(=O)C(C)c2ccc(NS(C)(=O)=O)c(F)c2)CC1 (stereo not shown) [Example 307]
quantityKind: pKi
experimentalResult: 8.30
//
compound: CCCCCCOc1nc(C(F)(F)F)ccc1CNC(=O)C(C)c1ccc(NS(C)(=O)=O)c(F)c1 (stereo not shown) [Example 91]
quantityKind: pKi
experimentalResult: 9.30

Report pKi for every entry below.
1. COCC1CCN(c2nc(C(F)(F)F)ccc2CNC(=O)C(C)c2ccc(NS(C)(=O)=O)c(F)c2)CC1 (stereo not shown) [Example 199]
2. CC(C(=O)NCc1ccc(C(F)(F)F)nc1OCc1ccc(C(F)(F)F)cc1)c1ccc(NS(C)(=O)=O)c(F)c1 (stereo not shown) [Example 206]

output:
8.85
8.49

====

Could you please report measured pKi for the items listed next?
# systemUnderTest: vanilloid receptor 1 (VR1/TRPV1) of the rat species (Rattus norvegicus, UniProt O35433)
# Construct: The spinal column is removed from decapitated rats; from tissue; host or cells: primary cells dissociated from rat dorsal root ganglia
# Sequence (O35433 whole entry): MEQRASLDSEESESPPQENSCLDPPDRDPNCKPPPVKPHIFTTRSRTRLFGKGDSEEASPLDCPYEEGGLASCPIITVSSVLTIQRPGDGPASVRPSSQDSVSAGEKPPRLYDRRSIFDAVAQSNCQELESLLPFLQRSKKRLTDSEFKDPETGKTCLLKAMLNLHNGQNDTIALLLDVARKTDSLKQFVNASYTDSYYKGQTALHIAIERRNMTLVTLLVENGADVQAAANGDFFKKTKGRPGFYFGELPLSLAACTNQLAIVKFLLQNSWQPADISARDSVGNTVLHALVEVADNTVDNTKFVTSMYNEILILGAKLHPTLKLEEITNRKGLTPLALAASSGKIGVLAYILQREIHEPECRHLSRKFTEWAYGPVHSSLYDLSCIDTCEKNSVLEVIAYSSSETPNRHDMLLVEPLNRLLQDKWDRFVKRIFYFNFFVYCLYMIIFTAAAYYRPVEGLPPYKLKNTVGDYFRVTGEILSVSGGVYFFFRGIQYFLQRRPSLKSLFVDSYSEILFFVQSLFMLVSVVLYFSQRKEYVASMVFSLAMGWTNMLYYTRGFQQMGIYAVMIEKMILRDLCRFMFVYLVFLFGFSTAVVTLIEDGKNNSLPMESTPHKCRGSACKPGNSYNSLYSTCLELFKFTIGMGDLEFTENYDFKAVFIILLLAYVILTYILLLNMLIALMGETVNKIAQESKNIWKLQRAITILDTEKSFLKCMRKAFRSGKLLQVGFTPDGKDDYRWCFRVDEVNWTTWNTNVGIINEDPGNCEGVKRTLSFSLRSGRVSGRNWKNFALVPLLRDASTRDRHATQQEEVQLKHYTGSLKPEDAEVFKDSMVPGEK
# protocolText: FLIPR Ca2+ influx assay on rat dorsal root ganglia cells (pharmacological method I)
# Format: cell-based
# conditionSet: table 4; capsaicin; read-out: Ki (rat) Cap.
Numbers only, as −log10 of the molar value.

Consider the reported pKi for these molecules:
molecule: CCC1CCN(c2nc(C(F)(F)F)ccc2CNC(=O)C(C)c2ccc(NS(C)(=O)=O)c(F)c2)CC1 (stereo not drawn)
pKi: 9.40

molecule: CC(C(=O)NCc1ccc(C(F)(F)F)nc1N1CCCCCCC1)c1ccc(NS(C)(=O)=O)c(F)c1 (stereo not drawn)
pKi: 9.00

molecule: CC(C(=O)NCc1ccc(C(F)(F)F)nc1N1CCC(CN(C)C)(c2ccccc2)CC1)c1ccc(NS(C)(=O)=O)c(F)c1 (stereo not drawn)
pKi: 7.64

molecule: CCN(CC)c1nc(C(F)(F)F)ccc1CNC(=O)C(C)c1ccc(NS(C)(=O)=O)c(F)c1 (stereo not drawn)
pKi: 7.92

Report pKi for every entry below.
1. CC(C(=O)NCc1ccc(C(F)(F)Cl)nc1OC1CCCC1)c1ccc(NS(C)(=O)=O)c(F)c1 (stereo not drawn)
2. CC(C(=O)NCc1ccc(C(F)(F)F)nc1CCC(C)(C)C)c1ccc(NS(C)(=O)=O)c(F)c1 (stereo not drawn)
3. Cc1cc(C(C)C(=O)NCc2ccc(C(F)(F)F)nc2N2CCN(c3ccccc3)CC2)ccc1NS(C)(=O)=O (stereo not drawn)

output:
8.96
9.15
8.48

Give pKi for each of the items listed below.
1. CC(C(=O)NCc1ccc(C(F)(F)F)nc1SC1CCCCC1)c1ccc(NS(C)(=O)=O)c(F)c1 (stereo not drawn)
2. CC(C(=O)NCc1ccc(C(F)(F)F)nc1N1CCC(C(F)(F)F)CC1)c1ccc(NS(C)(=O)=O)c(F)c1 (stereo not drawn)

output:
[8.92, 9.40]

These entries and their values trace back to patent US8710233B2.
